Tested on: MDA-MB-468 breast
assay.notes: NCI-60 one-dose screen, 48 h (100 = growth as untreated, 0 = no growth, -100 = all killed)
run.conditions: 10 µM unless noted
The panel holds about 83,000 compounds, 20% with a hit somewhere; the sample as a whole holds those more often.
Provide the reported growth of each item.
Form entry: value (%) — number only.

## Task In one line, give reported growth of the entry `CNS(=O)(=O)c1cccc(-c2ccc3c4c(n(C)c(=O)c3c2)-c2ccccc2C4=O)c1` .
## Result 83.4

## Task Note growth for the molecule shown: `NNc1nnc2nc(Nc3ccccc3)nc(Nc3ccc(S(N)(=O)=O)cc3)n12`
## Result 126

## Task Note down growth recorded for `O=C1[C@@H]2Cc3c([nH]c4ccccc34)[C@H](c3c(Cl)cccc3Cl)N2C(=O)CN1C1CCN(Cc2c(F)cccc2F)CC1`
## Result 102

## Task Given the molecule `CCC(=O)Nc1ccc(-c2nc(-c3cccc(O)c3)c(-c3ccnc(Br)c3)[nH]2)cc1` , write its reported growth.
## Result 30.5

## Task Tell me its growth given CCCCCCCCCCCCC1CCC/C=C\CCC(=O)O1 (stereo not given) as the entry.
## Result 100

## Task Hello, please tell me recorded growth for this one: `COc1cc2cc(Oc3ccc(NC(=O)Nc4ccc(Cl)c(Cl)c4)cc3)c(C)nc2cc1OCCN1CCCCC1`
## Result 103

## Task // Input: `CCCCN(CCCC)CCCn1c(-c2ccccc2)ccc1-c1ccccc1` . Output its growth only.
## Result 43

## Task Please report growth for the following molecule: CC(CNc1nc(Nc2ccc(Cl)c(Cl)c2)nc(C(Cl)(Cl)Cl)n1)N(C)C (stereo not given)
## Result -43.3

## Task Return the recorded growth value; entry: `O=C(Nc1ccc(-c2ccnc(Nc3ccc(N4CCOCC4)cc3)n2)cc1)[C@@H]1CCCN1`
## Result 36.2

## Task Note growth for the molecule shown: `CNC(=O)c1cc(Oc2ccc(NC(=O)c3nc(S(C)(=O)=O)sc3-c3ccc(F)cc3)cc2)ccn1`
## Result -4.37

## Task Recall and state the measured growth for `CC(C)(C)c1cc(NC(=O)Nc2ccc(-c3cn4c5c(sc4n3)CCc3c[nH]cc3-5)cc2)no1` .
## Result 22.6

## Task Given the molecule `O=C(/C=C/c1ccc(Cl)cc1)c1ccc(Nc2nc(NCCO)nc(N3CCOCC3)n2)cc1` , write its reported growth.
## Result 69.4

## Task # return recorded growth for input `O=C(NCCO)C(F)(F)F`
## Result 116

## Task Using the record for `COc1cc(/C=C/C(=O)c2ccc(C)cc2)ccc1Oc1nc(NCCO)nc(N2CCOCC2)n1` , state its measured growth.
## Result 27.2

## Task Output measured growth for this item: C=CC1=NC(C)(C)CC(C)O1 (stereo not given)
## Result 109

## Task Return growth for the following molecule: `N#Cc1c(-c2ccccc2)cc(-c2ccccc2)n(CCCCCC(=O)Nc2ccccc2N)c1=O`
## Result 62.8

## Task For the molecule `NS(=O)(=O)c1ccc(Nc2nc(N/N=C/c3ccc(C(F)(F)F)cc3)nc(Nc3ccccc3)n2)cc1` , give its measured growth value.
## Result 34.3

## Task Fill in growth for record `COc1cc(/C=C/C(=O)c2ccc(F)cc2)ccc1Oc1nc(NCCO)nc(N2CCOCC2)n1`
## Result 77.2

## Task Recall and state the measured growth for `COc1cc(CN)ccc1O` .
## Result 99.7

## Task Item `Cc1cc2nc(C(Cl)Cl)nc(-c3ccco3)n2n1` : provide growth
## Result -34
